// data source = patent US9409876B2

Test: Pharmacokinetics after IV administration, brain penetration assessment
Type: in vivo, rat
Settings: Sprague-Dawley, rat, plasma, iv, 7.5 mg/kg, Time 240, R2, read-out: Plasma level
Measured Endpoint: concentration at 240 min (ng/mL)
All answers are understood in ng/mL, so give the number only.

Data request: Looking for the measured concentration at 240 min of COc1ccccc1CN(C(=O)CC(C)C)[C@@H](C(=O)NC[C@H]1CCCO1)c1ccc(C)cc1 [Compound 8 (R,R)] , can you help?
Data returned: 3.35

---

Experiment: Pharmacokinetics after oral gavage
Type: in vivo, rat
Details: SD (Sprague-Dawley), rat, plasma, 10 mg/kg; oral vs intravenous exposure
Protocol: In three of the rats tested in Example 56, indicated as R1, […], also the pharmacokinetic profile of compound 8 (R,R) was evaluated. The results are summarised in Tables III to IV and in FIGS. 1-4. FIGS. 1 and 2 show the plasma concentrations, expressed in ng/ml, of compound 8 (R,R) over time after oral administration for each of the three subjects tested (FIG. 1) and as an average (FIG. 2). […] In tables IV and VI, LLOQ means lower limit of quantification.
Measured Endpoint: bioavailability

Data request: What bioavailability value was documented for this compound, COc1ccccc1CN(C(=O)CC(C)C)[C@@H](C(=O)NC[C@H]1CCCO1)c1ccc(C)cc1 [Compound 8 (R,R)] ?
Data returned: 0.16%
